System: tetA promoter (PtetA)-lacZ reporter in E. coli KM3
Assay type: cell-based
Settings: Table 6, reverse repressor hits; chlorimuron, same plate assay format as Table 4
Measurement Name: relative β-galactosidase activity, inducer Ci

- L1-21: library L1 reverse repressor hit (SEQ ID NO: 1206-1213) (protein, rSuR L1-21) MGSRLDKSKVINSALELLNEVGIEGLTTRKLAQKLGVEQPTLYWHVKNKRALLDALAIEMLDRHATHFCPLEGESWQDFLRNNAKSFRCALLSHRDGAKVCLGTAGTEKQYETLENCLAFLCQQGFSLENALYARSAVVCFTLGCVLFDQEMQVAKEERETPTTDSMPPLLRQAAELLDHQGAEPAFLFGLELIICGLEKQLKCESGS: 0.07
- L1-41: library L1 reverse repressor hit (SEQ ID NO: 1206-1213) (protein, rSuR L1-41) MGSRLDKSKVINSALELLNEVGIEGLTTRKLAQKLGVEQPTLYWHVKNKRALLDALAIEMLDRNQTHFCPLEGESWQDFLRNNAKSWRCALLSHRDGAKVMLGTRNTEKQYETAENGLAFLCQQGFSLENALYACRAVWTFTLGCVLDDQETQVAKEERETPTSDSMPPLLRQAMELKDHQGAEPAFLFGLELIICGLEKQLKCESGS: 0.39

Here is the next item to consider.
Asked: Name the reported relative β-galactosidase activity, inducer Ci value associated with the molecule L1-33: library L1 reverse repressor hit (SEQ ID NO: 1206-1213) (protein, rSuR L1-33) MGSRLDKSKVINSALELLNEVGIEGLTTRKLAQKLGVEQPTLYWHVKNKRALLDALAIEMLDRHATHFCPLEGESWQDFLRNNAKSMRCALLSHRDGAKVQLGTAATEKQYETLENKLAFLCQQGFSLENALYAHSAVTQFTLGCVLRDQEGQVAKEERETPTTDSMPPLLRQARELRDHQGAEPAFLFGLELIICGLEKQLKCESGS
Given back: 0.76
